# target under test: UniProt:Q06187
# Sequence (Q06187 whole entry, looked up): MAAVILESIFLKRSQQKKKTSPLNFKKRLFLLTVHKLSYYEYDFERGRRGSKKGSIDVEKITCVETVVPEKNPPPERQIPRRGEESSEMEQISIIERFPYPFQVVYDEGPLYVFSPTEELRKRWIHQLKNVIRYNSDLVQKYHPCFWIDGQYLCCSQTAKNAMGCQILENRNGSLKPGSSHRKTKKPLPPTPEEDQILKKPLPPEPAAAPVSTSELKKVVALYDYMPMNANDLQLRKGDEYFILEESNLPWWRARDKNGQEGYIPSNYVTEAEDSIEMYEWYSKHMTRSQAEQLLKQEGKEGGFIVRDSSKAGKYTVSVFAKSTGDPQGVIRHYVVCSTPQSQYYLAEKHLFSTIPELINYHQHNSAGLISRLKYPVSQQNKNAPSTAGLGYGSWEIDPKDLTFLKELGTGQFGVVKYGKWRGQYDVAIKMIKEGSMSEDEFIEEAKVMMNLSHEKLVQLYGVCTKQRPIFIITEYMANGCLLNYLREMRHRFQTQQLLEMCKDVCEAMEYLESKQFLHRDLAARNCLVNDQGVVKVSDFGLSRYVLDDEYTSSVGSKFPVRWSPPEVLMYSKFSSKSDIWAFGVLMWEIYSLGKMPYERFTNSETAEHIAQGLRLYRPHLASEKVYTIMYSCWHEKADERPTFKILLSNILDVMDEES
# experiment description: radiometric filter-binding kinase assay
# test parameters: compound 1.0 µM
Consider the cut-off 90%. If the recorded residual activity is strictly smaller, the label is class 1; if not, the label is class 0.

- molecule: "O=C(NOCC(O)CO)c1ccc(F)c(F)c1Nc1ccc(I)cc1Cl (stereo unspecified)"
  discrete label: "class 0"
- molecule: "Oc1ccc2ccccc2c1SSc1c(O)ccc2ccccc12"
  discrete label: "class 1"
- molecule: "C=C1C(=O)OC2C1CC/C(C)=C/CCC1(C)OC21 (stereo unspecified)"
  discrete label: "class 0"
- molecule: "O=C(NCCCNc1nc(Nc2cccc(CN3CCOCC3)c2)ncc1C1CC1)C1CCC1"
  discrete label: "class 1"
- molecule: "O=C(O)c1ccc(-c2c[nH]c3ncc(-c4ccccc4)cc23)cc1C1CCCC1"
  discrete label: "class 0"
- molecule: "Cc1ccc(=O)n(-c2ccccc2)c1"
  discrete label: "class 0"
- molecule: "c1ccc2c(-c3cnn4cc(-c5ccc(N6CCNCC6)cc5)cnc34)ccnc2c1"
  discrete label: "class 0"
- molecule: "CCCCCc1ccc(/C=C/[C@H](O)[C@@H](CO)NC)cc1"
  discrete label: "class 0"
- molecule: "CCn1c(-c2nonc2N)nc2cncc(CNC3CCNCC3)c21"
  discrete label: "class 0"
- molecule: "CN1C(=O)[C@@H](Cc2c[nH]c3ccccc23)NC1=S"
  discrete label: "class 0"

---

Examples of molecules with documented residual activity follow.
# target under test: NEK2 (human)
# experiment description: radiometric filter-binding kinase assay
# test parameters: compound 0.1 µM
metric name: residual activity (%)

- molecule: "CC1=C(CO)C(=O)O[C@@H]([C@@H](C)[C@H]2CC[C@H]3[C@@H]4C[C@H]5O[C@]56[C@@H](O)C=CC(=O)[C@]6(C)C4CC[C@]23C)C1 (some centres undefined)"
  output unit: "%"
  numeric readout: 93
- molecule: "CNc1nc(-c2ccc3c(N)n[nH]c3c2)cc(N2C[C@@H](C(=O)NC3CCCCC3)CC[C@H]2C)n1"
  output unit: "%"
  numeric readout: 118
- molecule: "NC(=O)c1cc(-c2ccnc(NC3CCCCC3)c2)nc(N2CCNCC2)c1"
  output unit: "%"
  numeric readout: 111
- molecule: "c1ccc2c(-c3cnn4cc(-c5ccc(N6CCNCC6)cc5)cnc34)ccnc2c1"
  output unit: "%"
  numeric readout: 118

---

# target under test: INSR (human) (UniProt P06213)
# Sequence (P06213 whole entry, looked up): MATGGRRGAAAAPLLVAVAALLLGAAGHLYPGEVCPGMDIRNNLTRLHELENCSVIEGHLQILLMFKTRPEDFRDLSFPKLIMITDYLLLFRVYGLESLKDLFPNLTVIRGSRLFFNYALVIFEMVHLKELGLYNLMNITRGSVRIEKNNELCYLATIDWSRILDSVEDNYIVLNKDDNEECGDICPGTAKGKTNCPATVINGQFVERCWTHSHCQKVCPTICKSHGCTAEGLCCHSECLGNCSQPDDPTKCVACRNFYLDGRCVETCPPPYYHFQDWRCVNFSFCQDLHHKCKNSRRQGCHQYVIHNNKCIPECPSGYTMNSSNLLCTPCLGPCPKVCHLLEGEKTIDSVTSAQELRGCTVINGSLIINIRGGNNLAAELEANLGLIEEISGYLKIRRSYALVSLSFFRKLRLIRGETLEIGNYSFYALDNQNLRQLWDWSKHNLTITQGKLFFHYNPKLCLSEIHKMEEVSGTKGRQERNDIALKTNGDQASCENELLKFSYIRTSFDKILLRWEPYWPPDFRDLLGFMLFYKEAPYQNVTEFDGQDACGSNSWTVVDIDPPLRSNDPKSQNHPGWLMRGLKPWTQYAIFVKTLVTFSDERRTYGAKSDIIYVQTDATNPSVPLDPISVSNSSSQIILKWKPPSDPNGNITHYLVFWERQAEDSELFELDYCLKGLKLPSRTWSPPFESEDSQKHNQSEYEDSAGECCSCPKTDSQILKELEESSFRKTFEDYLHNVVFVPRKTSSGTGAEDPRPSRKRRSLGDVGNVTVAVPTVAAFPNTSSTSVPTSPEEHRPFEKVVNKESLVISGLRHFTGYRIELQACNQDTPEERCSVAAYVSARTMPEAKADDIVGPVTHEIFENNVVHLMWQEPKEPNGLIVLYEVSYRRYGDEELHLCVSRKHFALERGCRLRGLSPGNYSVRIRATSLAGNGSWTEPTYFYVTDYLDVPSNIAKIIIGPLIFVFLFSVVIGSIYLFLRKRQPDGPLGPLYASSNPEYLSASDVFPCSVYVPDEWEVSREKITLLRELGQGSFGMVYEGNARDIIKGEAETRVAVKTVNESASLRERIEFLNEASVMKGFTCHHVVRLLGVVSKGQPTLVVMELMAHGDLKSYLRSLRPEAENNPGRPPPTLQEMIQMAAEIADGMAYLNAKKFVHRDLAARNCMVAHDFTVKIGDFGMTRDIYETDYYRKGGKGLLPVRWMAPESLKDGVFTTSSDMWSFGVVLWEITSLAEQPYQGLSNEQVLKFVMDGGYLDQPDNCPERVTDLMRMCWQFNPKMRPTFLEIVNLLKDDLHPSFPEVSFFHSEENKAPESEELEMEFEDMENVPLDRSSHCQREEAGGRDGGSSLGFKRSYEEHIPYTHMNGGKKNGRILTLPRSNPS
# experiment description: radiometric filter-binding kinase assay
# test parameters: compound 1.0 µM
metric name: residual activity (%)

- molecule: "Cc1nc(-c2ccc(OCC(C)C)c(C#N)c2)sc1C(=O)O"
  target under test: "INSR (human) (UniProt P06213)"
  metric name: "residual activity"
  numeric readout: 102
- molecule: "Cc1ccc(Sc2cnc(Nc3cccc(Br)n3)s2)cc1C(=O)N1CCN(C(=O)CN)CC1"
  target under test: "INSR (human) (UniProt P06213)"
  metric name: "residual activity"
  numeric readout: 14
- molecule: "Oc1ccc2ccccc2c1SSc1c(O)ccc2ccccc12"
  target under test: "INSR (human) (UniProt P06213)"
  metric name: "residual activity"
  numeric readout: 110
- molecule: "O=C(NCCCNc1nc(Nc2cccc(CN3CCOCC3)c2)ncc1C1CC1)C1CCC1"
  target under test: "INSR (human) (UniProt P06213)"
  metric name: "residual activity"
  numeric readout: 100
- molecule: "O=C1NC(=S)N[C@@H]1Cc1c[nH]c2ccccc12"
  target under test: "INSR (human) (UniProt P06213)"
  metric name: "residual activity"
  numeric readout: 96
- molecule: "Cc1cccc(-c2nn(C(=S)Nc3ccccc3)cc2-c2ccnc3ccccc23)n1"
  target under test: "INSR (human) (UniProt P06213)"
  metric name: "residual activity"
  numeric readout: 94
- molecule: "COc1cc2ncn(-c3cc(OCc4ccccc4S(C)(=O)=O)c(C#N)s3)c2cc1OC"
  target under test: "INSR (human) (UniProt P06213)"
  metric name: "residual activity"
  numeric readout: 104
- molecule: "O=C(O)c1ccc(-c2c[nH]c3ncc(-c4ccccc4)cc23)cc1C1CCCC1"
  target under test: "INSR (human) (UniProt P06213)"
  metric name: "residual activity"
  numeric readout: 100
- molecule: "NC(=O)c1ccc(-c2ccc(Oc3cncc4sc(-c5nn[nH]n5)cc34)cc2)cc1"
  target under test: "INSR (human) (UniProt P06213)"
  metric name: "residual activity"
  numeric readout: 111
- molecule: "Cc1cc(SCc2sc(-c3ccc(C(F)(F)F)cc3)nc2C)ccc1OCC(=O)O"
  target under test: "INSR (human) (UniProt P06213)"
  metric name: "residual activity"
  numeric readout: 107
- molecule: "CNC(=O)C1[C@H]2O[C@@](C)([C@@H]1N)n1c3ccccc3c3c4c(c5c6ccccc6n2c5c31)C(=O)NC4 (stereo partly drawn)"
  target under test: "INSR (human) (UniProt P06213)"
  metric name: "residual activity"
  numeric readout: 11
- molecule: "NCC(=O)Nc1ccc(-n2nc(C(F)(F)F)cc2-c2ccc3c(ccc4ccccc43)c2)cc1"
  target under test: "INSR (human) (UniProt P06213)"
  metric name: "residual activity"
  numeric readout: 98
- molecule: "COc1ccc(-n2ncc3cnc(Nc4cc(OC)c(OC)c(OCCCN5CCN(C)CC5)c4)nc32)cc1"
  target under test: "INSR (human) (UniProt P06213)"
  metric name: "residual activity"
  numeric readout: 21
